Biological target: Troponin I, cardiac muscle (Homo sapiens) + Troponin T, cardiac muscle (Homo sapiens) + Troponin C, slow skeletal and cardiac muscles (Homo sapiens) (UniProt P19429+P45379+P63316)
Assay: cardiac RTF calcium sensitivity inhibitors, primary screen, biochemical, IANBD-TnC fluorescence, EC70 calcium (AID 493244);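 further: assay run at fixed EC70 calcium of 1.6 mM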
Conditions: IANBD-labeled cardiac RTF, Ca2+ fluorescence; at 7.15 µM
Hit rate of the full screen: of about 340,000 compounds, about 390 (0.11%) were called active.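 How the source made its calls: active means inhibition above the mean inhibition of all tested compounds plus 3 SD (cut at about 17% in these data); inactive means the rest.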 The sample as a whole holds a higher share of actives than the screen did.
Outcome codes: 1 for active, -1 for inactive

Cc1cc(C)cc(OCC(=O)NNC(=O)CCN2C(=O)c3ccccc3C2=O)c1 ... -1
C[C@]12CCC(=O)C=C1C=CC1C2CC[C@@]2(C)C1CC[C@@]21CCC(=O)O1 (stereo not given in full) ... -1
Cc1ccc(S(=O)(=O)N(CC(=O)Nc2cccc([N+](=O)[O-])c2)Cc2ccc(Cl)cc2)cc1 ... 1
CCCOc1ccc(N2C(=O)CC(N(CCc3ccc(S(N)(=O)=O)cc3)C(C)=O)C2=O)cc1 (stereo not given) ... -1
COC(=O)C1(C)NC(c2ccccc2OC)C2C(=O)N(c3ccccc3)C(=O)C21 (stereo not given) ... -1

###

Form field: inhibition (one value per entry).
Biological target: Troponin I, cardiac muscle (Homo sapiens) + Troponin T, cardiac muscle (Homo sapiens) + Troponin C, slow skeletal and cardiac muscles (Homo sapiens) (UniProt P19429+P45379+P63316)
Assay: cardiac RTF calcium sensitivity inhibitors, primary screen, biochemical, IANBD-TnC fluorescence, EC70 calcium (AID 493244);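 further: assay run at fixed EC70 calcium of 1.6 mM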
Settings: IANBD-labeled cardiac RTF, Ca2+ fluorescence; at 7.15 µM; stronger effect = higher value
The campaign covered roughly 340,000 compounds. About 390 (0.11%) were called active. The sample holds actives, similar compounds and a random draw of the others, so the mix is not that of the screen.
ENDPOINT LABEL: inhibition (%)

COc1ccc(C)cc1S(=O)(=O)N(CC(=O)Nc1cccc([N+](=O)[O-])c1)c1ccc(C)cc1 ... 0.11
O=C(NCCC1CCCCN1S(=O)(=O)c1ccc(F)cc1)C(=O)NC1CC1 (stereo unspecified) ... -3.06
CCc1nnc(NC(=O)c2cc(S(=O)(=O)N3CCN(CC)CC3)ccc2Cl)s1 ... -8.17
O=C(/C(=N\O)n1cncn1)c1ccc(Br)cc1Br ... -6.03
CC(C)(CNC(=O)c1ccc(Cl)c(S(=O)(=O)N2CCc3ccccc3C2)c1)N1CCOCC1 ... -11.2
Cn1cnc([N+](=O)[O-])c1Sc1ccccc1 ... 7.04

###

Target: Troponin I, cardiac muscle (Homo sapiens) + Troponin T, cardiac muscle (Homo sapiens) + Troponin C, slow skeletal and cardiac muscles (Homo sapiens) (UniProt P19429+P45379+P63316)
Assay: cardiac RTF calcium sensitivity inhibitors, primary screen, biochemical, IANBD-TnC fluorescence, EC70 calcium (AID 493244);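 further: assay run at fixed EC70 calcium of 1.6 mM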
Conditions: IANBD-labeled cardiac RTF, Ca2+ fluorescence; at 7.15 µM
The campaign covered roughly 340,000 compounds. About 390 (0.11%) were called active.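 Rule for the calls: active = inhibition above the mean inhibition of all tested compounds plus 3 SD (cut at about 17% in these data); inactive = the rest.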 The sample holds actives, similar compounds and a random draw of the others, so the mix is not that of the screen.
Outcome codes: y = active, n = inactive

CC(C)CC(=O)c1c[nH]c(C(=O)NCc2ccccc2)c1 ... n
O=c1oc2ccc(C#CC3(O)CCCCC3)cc2cc1-n1cc(-c2ccsc2)nn1 ... n
CCOC(=O)C1Cn2c(nc3c(c2=O)C(C)(CC)Cc2ccccc2-3)S1 (stereo not given) ... n
Cc1cc(OCc2ccc(C(=O)Nc3ccc(C(=O)O)cc3)o2)ccc1Cl ... n
O=C(CN1CCOCC1)Nc1cccc([N+](=O)[O-])c1 ... n
COc1ccc(S(=O)(=O)NCC2CCCN(C(=O)c3occc3C)C2)cc1 (stereo not given) ... n
CCOC(=O)c1sc(N(Cc2ccccc2)C(=O)CN2C(=O)CN(C)C2=O)nc1C ... n
C=CCn1c(N)cc(=O)nc1SCC(=O)Nc1cccc2ccccc12 ... n
N=c1n(Cc2ccc(Cl)cc2)c2ccccc2n1CC(O)c1ccco1 (stereo not given) ... n
COc1cccc(NC(=S)C(C#N)=C2N(C)c3ccccc3N2C)c1 ... n
COc1cccc(-n2c(=S)sc3c(=O)n(-c4ccccc4OC)c(SCC4OCCO4)nc32)c1 ... n
O=C1COc2ccc(C(=O)COC(=O)C3CC(O)CN3S(=O)(=O)c3ccc(Cl)cc3)cc2N1 (stereo not given) ... n
CCOc1ccc(-n2c(SC(C)C(=O)OC)nc3c(c2=O)SCC3)cc1 (stereo not given) ... n
COC(=O)Cc1c(O)ccn(Cc2cccc(C(F)(F)F)c2)c1=O ... n
CCCC/S(C)=N/S(=O)(=O)c1ccc(C)cc1 (stereo not given) ... n
CSCCC1NC(=O)N(CC(=O)Nc2cccc(S(=O)(=O)N3CCCCCC3)c2)C1=O (stereo not given) ... n
Cn1c(N)cc(=O)n(C)c1=S ... n
Cc1ccc(-n2c(=O)c(C#N)cc3c(=O)n4ccccc4nc32)cc1C ... n
CCCCN(C(=O)CSCc1ccc(C)cc1)c1c(N)n(Cc2ccccc2)c(=O)[nH]c1=O ... n
CCn1c(SCc2cc(=O)n3ccsc3n2)nc2ccccc21 ... n
CCCCCCCCNS(=O)(=O)CCNC1CCCCC1 ... n
COc1ccc2oc(N)nc2c1 ... n
Cc1ccccc1N(C(=O)Cc1cccs1)C(C(=O)NC1CCCCC1)c1cn(C)nc1C (stereo not given) ... n
COc1ccc(C(=O)NC2CC2)cc1OC1CCN(C/C=C/c2ccccc2)CC1 ... n
O=C(O)CCCCOn1ccnc1 ... n
CCCCCn1c(=O)c(C(=O)OCC)c(Cl)c2ccccc21 ... n
Cc1nc(-c2ccccc2)sc1-c1nnc(C2CC2)o1 ... n
Cc1csc(/N=C/N(C)C)c1C#N ... n
O=S(=O)(c1ccccc1)c1nc(Cc2ccccc2)oc1N1CCOCC1 ... n
COc1cccc(N(CC(=O)NC2CCCCCC2)S(=O)(=O)c2ccccc2)c1 ... n
CCn1c(O)c(N=NC2=NC(=O)CS2)c2cc(C)ccc21 ... n
Cc1ccc(CNC(=O)Cc2cn(C)c3ccccc23)cc1 ... n
CCCn1c(=O)c(-c2ccccc2)c(O)c2ccccc21 ... n
CC(=O)Nc1nc(N(C)C)nc(N(C)C)n1 ... n
COc1ccc(Cl)cc1NC(=O)[C@@H]1CCCN1C(=O)c1cccs1 ... n
NC(=O)C1(Nc2ccc([N+](=O)[O-])cc2)CCCC1 ... n
Cc1ccsc1C(C(=O)NC1CCCCC1)N(C(=O)Cc1cccs1)C1CC1 (stereo not given) ... n
COc1ccc(C(CNC(=O)c2cc(S(=O)(=O)Nc3cccc(C)c3)ccc2C)N2CCCC2)cc1 (stereo not given) ... n
COc1ccc(CNC(=O)CN2C(=O)c3ccccc3S2(=O)=O)cc1 ... n
O=C(N/N=C/c1ccccc1O)/C(=C/c1ccccc1)CCO ... n
COc1ccc2c(c1)cc1n2CCN=C1NN ... n
CC(C)(C)c1ccc(C(=O)NCc2nnc(SCC(=O)N3CCCc4ccccc43)n2-c2ccccc2)cc1 ... n
Cc1ccc2c(c1)N(CC(=O)N1CCCC(C)C1)C(=O)CO2 (stereo not given) ... n
CCCN(CCC)CCCNC(=O)CNC(=O)c1nn(-c2ccc(OC)cc2)c(=O)c2ccccc12 ... n
CC1CCCC(NC(=O)COC(=O)[C@@H]2CC(O)CN2S(=O)(=O)c2ccc3c(c2)OCCO3)C1C (stereo not given in full) ... y
